These entries and their values trace back to ChEMBL document CHEMBL3885861.

Species: Rattus norvegicus
protocol_notes: Open TG-GATES - Regimen: Single
Assay type: toxicity, organism-based, Sprague-Dawley
Parameters: regimen Single, gender Male, age 6 weeks
experimental_setup: in vivo, po, 300 mg/kg, 6 h, tissue Blood, route gavage, dose level Middle
assay_metric: Ht (%)
Lab book: enter the figure in %, no units written.

Examples with their reported Ht follow.
O=C(O)c1cc(/N=N/c2ccc(S(=O)(=O)Nc3ccccn3)cc2)ccc1O: 39
C[C@H](CS)C(=O)N1CCC[C@H]1C(=O)O: 39
Clc1ccccc1CN1CCc2sccc2C1: 39.1

Field: next molecule
// query Please indicate Ht recorded for CCc1cc(C(N)=S)ccn1 [ETHIONAMIDE]
// result 43.1
